Values from ChEMBL document CHEMBL1157946

- System: Triticum aestivum
- ASSAY PROCEDURE: Growth inhibition of Triticum aestivum L. cv. Duro after 24 hrs by coleoptile assay
- Format: functional, organism-based
- PROTOCOL CONDITIONS: Triticum aestivum, 24 h
RESULT TYPE: IC50 (µM)

1. C=C1C(=O)O[C@@H]2[C@H]3C(CO)=CC[C@H]3C(=C)CC[C@@H]12 [ANNUOLIDE A]
370
